Test system: Plasmodium falciparum chloroquine-susceptible strain D6
measurement protocol: In vitro antimalarial drug susceptibility assay (radiolabeled hypoxanthine incorporation), strain D6
Assay type: cell-based
conditions: Plasmodium falciparum, D6, 66 h, read-out: Strain D6 IC50, growth inhibition, chloroquine-susceptible strain D6, 66 h incubation
measurement label: IC50 (µg/mL)
Answers are plain numbers, in µg/mL.

Example entries begin here.
# compound, test system, units text, reading
rows = [
    ("OC(c1cc(C(F)(F)F)nc2c(C(F)(F)F)cccc12)C1CCCCN1 (stereo not drawn) [Mefloquine, reference compound]", "Plasmodium falciparum chloroquine-susceptible strain D6", "µg/mL", 0.0106),
    ("COC(=O)CCC(C)[C@H]1CCC2C3C(C[C@H](OC(C)=O)[C@@]21C)[C@@]1(C)CCC2(C[C@H]1C[C@H]3OC(C)=O)OOC1(CCCCCCC1)OO2 (stereo partly drawn) [8c/1B11]", "Plasmodium falciparum chloroquine-susceptible strain D6", "µg/mL", 0.0321),
    ("CCC1CCC2(CC1)OOC1(CC[C@]3(C)C4C[C@H](OC(C)=O)[C@@]5(C)C(CC[C@@H]5C(C)CCC(=O)O)C4[C@H](OC(C)=O)C[C@@H]3C1)OO2 (single isomer, unassigned) [9i/1C34]", "Plasmodium falciparum chloroquine-susceptible strain D6", "µg/mL", 0.00374),
]

Hi, could you look up IC50 for each item in my list?
1. COC(=O)CCC(C)[C@H]1CCC2C3C(C[C@H](OC(C)=O)[C@@]21C)[C@@]1(C)CCC2(C[C@H]1C[C@H]3OC(C)=O)OOC1(CCCCC1C)OO2 (stereo partly drawn) [8d/1B06]
2. CC(=O)O[C@H]1CC2C(C3CC[C@H](C(C)CCC(=O)O)[C@]31C)[C@H](OC(C)=O)C[C@@H]1CC3(CC[C@]21C)OOC1(CCCCC1)OO3 (stereo partly drawn) [9b/1C15]
3. CC(=O)O[C@H]1CC2C(C3CC[C@H](C(C)CCC(N)=O)[C@]31C)[C@H](OC(C)=O)C[C@@H]1CC3(CC[C@]21C)OOC1(CCCCC1)OO3 (stereo partly drawn) [10/1C19]

Completion:
1: 0.0175; 2: 0.019; 3: 0.00733

* * *

System: Plasmodium falciparum chloroquine-resistant strain W2
measurement protocol: microbe, parasite or virus in culture
Type: cell-based
conditions: Plasmodium falciparum, W2, 66 h, read-out: Strain W2 IC50, growth inhibition, chloroquine-resistant strain W2, 66 h incubation
measurement label: IC50

A selection of reference data follows.
# compound, IC50
measured = [
    ("CCC1CCC2(CC1)OOC1(CC[C@]3(C)C4C[C@H](OC(C)=O)[C@@]5(C)C(CC[C@@H]5C(C)CCC(=O)OC)C4[C@H](OC(C)=O)C[C@@H]3C1)OO2 (single isomer, unassigned) [8i/1B13a]", "9.39 ng/mL"),
    ("CC(=O)O[C@H]1CC2C(C3CC[C@H](C(C)CCC(=O)O)[C@]31C)[C@H](OC(C)=O)C[C@@H]1CC3(CC[C@]21C)OOC1(CCCCC1)OO3 (some centres unmarked)", "11.9 ng/mL"),
    ("CC(=O)O[C@H]1CC2C(C3CC[C@H](C(C)CCC(=O)O)[C@]31C)[C@H](OC(C)=O)C[C@@H]1CC3(CC[C@]21C)OOC1(CCCCC1C)OO3 (some centres unmarked)", "23.8 ng/mL"),
]

// for each compound below, give its IC50
1. COC(=O)CCC(C)[C@H]1CCC2C3C(C[C@H](OC(C)=O)[C@@]21C)[C@@]1(C)CCC2(C[C@H]1C[C@H]3OC(C)=O)OOC1(CCCCC1)OO2 (some centres unmarked)
2. CCC1CCC2(CC1)OOC1(CC[C@]3(C)C4C[C@H](OC(C)=O)[C@@]5(C)C(CC[C@@H]5C(C)CCC(N)=O)C4[C@H](OC(C)=O)C[C@@H]3C1)OO2 (single isomer, unassigned)
3. CCCNC(=O)CCC(C)[C@H]1CCC2C3C(C[C@H](OC(C)=O)[C@@]21C)[C@@]1(C)CCC2(C[C@H]1C[C@H]3OC(C)=O)OOC1(CCCCC1C)OO2 (some centres unmarked)
4. CCC1CCC2(CC1)OOC1(CC[C@]3(C)C4C[C@H](OC(C)=O)[C@@]5(C)C(CC[C@@H]5C(C)CCC(=O)O)C4[C@H](OC(C)=O)C[C@@H]3C1)OO2 (single isomer, unassigned)

Completion:
10.8 ng/mL
6.93 ng/mL
6.28 ng/mL
4.71 ng/mL

* * *

System: Plasmodium falciparum chloroquine-resistant strain W2
measurement protocol: microbe, parasite or virus in culture
Assay type: cell-based
conditions: Plasmodium falciparum, W2, 66 h, read-out: Strain W2 IC50, growth inhibition, chloroquine-resistant strain W2, 66 h incubation
measurement label: IC50
Numeric answer plus unit only.

# molecule, measurement label, reading
records = [
    ("CCNC(=O)CCC(C)[C@H]1CCC2C3C(C[C@H](OC(C)=O)[C@@]21C)[C@@]1(C)CCC2(C[C@H]1C[C@H]3OC(C)=O)OOC1(CCC(CC)CC1)OO2 (single isomer, unassigned) [27/1C37]", "IC50", "6.46 ng/mL"),
    ("COC(=O)CCC(C)[C@H]1CCC2C3C(C[C@H](OC(C)=O)[C@@]21C)[C@@]1(C)CCC2(C[C@H]1C[C@H]3OC(C)=O)OOC1(CCCCCCC1)OO2 (stereo partly shown) [8c/1B11]", "IC50", "13.3 ng/mL"),
    ("CCCNC(=O)CCC(C)[C@H]1CCC2C3C(C[C@H](OC(C)=O)[C@@]21C)[C@@]1(C)CCC2(C[C@H]1C[C@H]3OC(C)=O)OOC1(CCCCC1)OO2 (stereo partly shown) [11/1C20]", "IC50", "4.5 ng/mL"),
]

List the reported IC50 of each molecule below.
1. CCC1CCC2(CC1)OOC1(CC[C@]3(C)C4C[C@H](OC(C)=O)[C@@]5(C)C(CC[C@@H]5C(C)CCC(=O)NC)C4[C@H](OC(C)=O)C[C@@H]3C1)OO2 (single isomer, unassigned) [26/1C36]
2. CNC(=O)CCC(C)[C@H]1CCC2C3C(C[C@H](OC(C)=O)[C@@]21C)[C@@]1(C)CCC2(C[C@H]1C[C@H]3OC(C)=O)OOC1(CCCCC1C)OO2 (stereo partly shown) [14/1C23]
3. COC(=O)CCC(C)[C@H]1CCC2C3C(C[C@H](OC(C)=O)[C@@]21C)[C@@]1(C)CCC2(C[C@H]1C[C@H]3OC(C)=O)OOC1(OO2)C(C)CCCC1C (stereo partly shown) [8e/1B07]
4. COC(=O)CCC(C)[C@H]1CCC2C3C(C[C@H](OC(C)=O)[C@@]21C)[C@@]1(C)CCC2(C[C@H]1C[C@H]3OC(C)=O)OOC1(CCCCC1C)OO2 (stereo partly shown) [8d/1B06]

Completion:
1. 5.17 ng/mL
2. 6.49 ng/mL
3. 237 ng/mL
4. 10.2 ng/mL
